target: Serine/threonine-protein kinase PLK1 (Homo sapiens) (UniProt P53350); experiment: Inhibition of PLK1 at 10 uM after 60 mins by TR-FRET assay
Sequence (P53350 whole entry): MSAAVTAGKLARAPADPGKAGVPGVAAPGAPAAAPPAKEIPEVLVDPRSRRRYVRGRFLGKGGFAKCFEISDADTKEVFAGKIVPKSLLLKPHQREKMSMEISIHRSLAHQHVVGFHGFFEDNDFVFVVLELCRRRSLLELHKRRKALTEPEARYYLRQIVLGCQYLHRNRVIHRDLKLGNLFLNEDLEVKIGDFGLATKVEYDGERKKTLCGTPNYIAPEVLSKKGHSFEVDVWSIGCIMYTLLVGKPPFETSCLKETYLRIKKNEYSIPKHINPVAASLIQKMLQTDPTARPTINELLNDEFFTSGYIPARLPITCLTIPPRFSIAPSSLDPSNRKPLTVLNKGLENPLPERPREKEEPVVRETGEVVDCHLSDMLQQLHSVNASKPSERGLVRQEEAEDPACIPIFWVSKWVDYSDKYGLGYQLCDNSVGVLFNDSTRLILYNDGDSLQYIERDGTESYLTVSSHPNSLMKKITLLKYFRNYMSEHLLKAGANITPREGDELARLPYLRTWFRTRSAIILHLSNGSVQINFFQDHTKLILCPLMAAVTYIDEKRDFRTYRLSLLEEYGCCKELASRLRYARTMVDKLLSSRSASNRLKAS
Label satisfied when inhibition is at or above 5%; otherwise label not satisfied.

Here are 4 molecules together with their reported answers.
O=c1[nH]nc(-c2ccnc(NC3CCOCC3)c2)n1-c1ccc2ccccc2c1 :: satisfied
O=c1n(Cc2ccncc2)nc(-c2ccnc(NC3CCCCC3)c2)n1-c1ccc2ccccc2c1 :: not satisfied
O=c1[nH]nc(-c2ccnc(NC3CCCOC3)c2)n1-c1ccc2ccccc2c1 (stereo unspecified) :: satisfied
O=c1[nH]nc(-c2ccnc(NC3CCCCC3)c2)n1-c1ccc2ccccc2c1 :: satisfied

Now, please, on to the next molecule.
Request: Kindly determine if inhibition recorded for "O=c1n(Cc2ccccn2)nc(-c2ccnc(NC3CCOCC3)c2)n1-c1ccc2ccccc2c1" is above or exactly 5%.
Response: satisfied

Each recorded value in this set is attributed to ChEMBL document CHEMBL1641539.
